Assay: Plasma protein binding in CD-1 mouse plasma measured after 4 hrs by LC-MS/MS analysis
Assay type: ADME, cell-free
Conditions: read-out: PPB (converted)
Give fraction unbound at 4 h for every item shown.
Answers are plain numbers.

Below are 2 compounds. Give each one its fraction unbound at 4 h.
1. O=C(O)[C@H](CCCn1c(-c2ccccc2)n[nH]c1=S)N(Cc1ccccn1)Cc1ccccn1
2. O=C(O)[C@H](CCn1c(-c2ccccc2)n[nH]c1=S)N(Cc1c[nH]cn1)Cc1c[nH]cn1

1. 0.313
2. 0.45

Report fraction unbound at 4 h for every entry below.
1. O=C(O)[C@H](CCCn1c(-c2ccccc2)n[nH]c1=S)N(Cc1c[nH]cn1)Cc1c[nH]cn1
2. Cc1[nH]cnc1CN(Cc1c[nH]cn1)[C@@H](CCCn1c(-c2ccccc2)n[nH]c1=S)C(=O)O
3. O=C(O)[C@H](CCCn1c(-c2ccc3ccccc3c2)n[nH]c1=S)N(Cc1c[nH]cn1)Cc1c[nH]cn1

[0.324, 0.377, 0.048]
